Every entry's value here was drawn from paper PMC8210616.

Target: mouse Clec9a (mClec9a) protein (mouse) (UniProt Q8BRU4)
Assay: MST; mClec9a protein labeled with Red-NHS647 dye; peptides in serial dilution in MST buffer, room temperature; MO. Affinity Analysis v2.2.4
Ends that are not written are not given here. * marks the point of attachment. biotin = biotin on the C-terminal Lys, O=C1N[C@H]2[C@H](CS[C@H]2CCCCC(=O)*)N1
endpointName: Kd (µM)

A: WPRFHSSVFHTHGGGK(biotin) [WH^biotin (WH peptide, …-GGG-K^biotin)]
B: WPRFHSSVRHTHGGGK(biotin) [CBP-12^biotin (12-mer Clec9a binding peptide, …-GGG-K^biotin)]
Q) Identify the item whose Kd is the smaller number: A or B Kindly state the label of the option you pick.
A) B
(B: 0.61 µM, A: 22.7 µM)
